Test system: BT-549 breast
Assay: NCI-60 one-dose screen, 48 h (100 = growth as untreated, 0 = no growth, -100 = all killed)
Conditions: 10 µM unless noted
This is part of a sample that, as a whole, favours compounds with a hit. Of some 83,000 tested, about 20% had one in any assay.
# growth per record follows
Numeric only. Scale: %

What value of growth has been recorded for this entry: `COc1cc(-c2cc3cc(O)ccc3oc2=O)cc(OC)c1OC`
106

* * *

Tested on: ACHN renal
Test: NCI-60 one-dose screen, 48 h
Conditions: 10 µM unless noted
The panel holds about 83,000 compounds, 20% with a hit somewhere; the sample as a whole holds those more often. Active and inactive are the calls of the source. The calls were made as follows: active = growth percent below 10; inactive = the rest.
Permitted responses: active, inactive

Examples with answers:
Hi, sorry to bother you, what did the test record for `C=C1C(=O)O[C@H]2[C@H]1CC/C(COC(=O)N[C@H](Cc1c[nH]c3ccccc13)C(=O)OC)=C\CC[C@@]1(C)O[C@@H]21` ?
active

Tell me the recorded outcome of this test for `O=C1CCCC=CC[C@H]2C=C(Cl)C(=O)C2=CC[C@H](CCCCC(F)(F)F)OC(=O)CCCC=CC[C@H]2C=C(Cl)C(=O)C2=CC[C@H](CCCCC(F)(F)F)OC(=O)CCCC=CC[C@H]2C=C(Cl)C(=O)C2=CC[C@H](CCCCC(F)(F)F)O1` .
inactive

Could you check what this test reported for `N#Cc1cnc2cc(OC[C@@H](O)CO)c(NC(=O)C3CCCC3)cc2c1Nc1ccc(OCc2cccc(F)c2)c(Cl)c1` ?
inactive

Continuing:
Test call, this molecule: `CCCNc1nc(N(C)O)nc(N(C)O)n1`
inactive

* * *

Tested on: SNB-75 CNS
Assay: NCI-60 one-dose screen, 48 h (100 = growth as untreated, 0 = no growth, -100 = all killed)
Conditions: 10 µM unless noted
Compounds without any hit were thinned out: in the full panel of roughly 83,000, 20% have a hit. Activity calls are given as the source filed them. Rule for the calls: active = growth percent below 10; inactive = the rest.
Overview of reported growth across a group of molecules:

Requested read-out: growth. Entry: `Cc1cc2nc3c4cc(Cl)ccc4n(CCN(C)C)c3nc2cc1C`
26.3% (inactive)

Query (molecule): `Brc1ccc2c(c1)c(-c1nc(-c3c[nH]c4ncccc34)cs1)cn2CCCN1CCCCC1` ; field requested: growth
67.6% (inactive)

Can you share its growth? I mean this molecule: `CCCCC[C@H]1C/C=C2/C(=O)C=C[C@@H]2C/C=C\CCCC(=O)O[C@@H](CCCCC)C/C=C2/C(=O)C=C[C@@H]2C/C=C\CCCC(=O)O1`
-80.8% (active)

* * *

System: M14 melanoma
Assay: NCI-60 one-dose screen, 48 h (100 = growth as untreated, 0 = no growth, -100 = all killed)
Conditions: 10 µM unless noted
Compounds without any hit were thinned out: in the full panel of roughly 83,000, 20% have a hit.
propertyMeasured: growth (%)
Expressed in %, but write only the number.

Some molecules with known growth results, for comparison:
Look up growth for this molecule: `CC(C)(C)c1ccc(OP(=S)(N/N=C/c2ccccc2O)Oc2ccc(C(C)(C)C)cc2)cc1`
77.7

Field request: growth | item: `CC1(C)C(=O)/C(=C\c2ccco2)C[C@]2(C)[C@H]3CC[C@@H]4[C@@H](C(=O)/C=C/c5ccco5)CC[C@@]4(C)[C@]3(C)CC[C@@H]12`
23.9

GET /values?readout=growth&item= `C=C1C(=O)O[C@H]2[C@H]1CC/C(COC(=O)NCc1c[nH]c3ccccc13)=C\CC[C@@]1(C)O[C@@H]21`
48.7

Others:
Look up growth: `COc1ccc2c(c1)c(-c1nc(-c3cn(C)c4ncccc34)cs1)cn2CCCN1CCCCC1`
-85.2

Requested read-out: growth. Entry: `CN(C)c1ccc(N=C2C=CC(=O)C=C2)cc1`
95.6

Requested field: growth. Item: `COc1ccc(/C=C/C(=O)NCCO)cc1`
106
